Reference for the values: the supplement of paper PMC10037445

# System: RAW-Dual
# PROTOCOL TEXT: NF-kB SEAP reporter activity, fold change vs agonist alone; cytotoxicity flag (confluency mask): cytotoxic (confluency <70% of control); higher = enhanced NF-kB activity
# EXPERIMENTAL SETUP: agonist: Pam3CSK4 (TLR2/1) 0.1 ug/mL
In all, about 2,900 compounds were measured (“NF-kB SEAP reporter activity, fold change vs agonist alone”: median about 0.99, highest 2% from about 2.6 on). The sample as a whole holds a higher share of the highest values than the screen did.
Kindly return fulfilled if reported NF-kB SEAP reporter activity is no lower than 0.5; return not fulfilled if it is lower.

- COMPOUND: "Br.CCCc1cc(-c2nc(-c3ccc(C)cc3)cs2)ccn1 (library stock concentration (final ~1000-fold dilution): 10 mM)"
  CLASS: "fulfilled"
- COMPOUND: "COc1ccc2c(c1)c(C1=C(c3c[nH]c4ccccc34)C(=O)NC1=O)cn2CCCN(C)C (library stock concentration (final ~1000-fold dilution): 10 mM)"
  CLASS: "fulfilled"
- COMPOUND: "CC/C(=C(\\c1ccc(O)cc1)c1ccc(OCCNC)cc1)c1ccccc1.Cl (library stock concentration (final ~1000-fold dilution): 10 mM)"
  CLASS: "not fulfilled"
- COMPOUND: "CCCCCCOc1cc(C)c(O)c(C)c1C (library stock concentration (final ~1000-fold dilution): 10 mM)"
  CLASS: "not fulfilled"

Prompt line: Is the recorded value of NF-kB SEAP reporter activity equal to or greater than 0.5 for this compound? CCOC(=O)c1cnc2ccc(-c3cncc(NS(=O)(=O)c4ccccc4)c3)cn12 (library stock concentration (final ~1000-fold dilution): 10 mM)
Response line: fulfilled

Prompt line: Is the recorded value of NF-kB SEAP reporter activity equal to or greater than 0.5 for this compound? CCc1ccc(OCc2ccccc2C(=O)Nc2ccc3nc(C)cc(N)c3c2)cc1.Cl (library stock concentration (final ~1000-fold dilution): 10 mM)
Response line: not fulfilled
